Biological target: T1, 4H3134-AA
T1 chain: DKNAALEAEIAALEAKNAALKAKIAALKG
Assay: two-hybrid library CCmax;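 note: natural log of median RNA to DNA barcode read ratio; higher means stronger binding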
Conditions: mean of both orientations
measured-attribute: interaction score
Just the number, please, no unit after it.

Previously resolved entries follow.
Request: Fill in the blank: the reported interaction score of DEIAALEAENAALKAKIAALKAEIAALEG [4H233-AA] is ____.
Result: -0.974

Request: Which interaction score value belongs to DKIAALKAKNAALEAKIAALKAEIAALEG [4H2985-AA] ?
Result: -0.682

New cases:
Request: May I ask what interaction score has been recorded for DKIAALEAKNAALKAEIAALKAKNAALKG [4H2512-AA] ?
Result: -0.978

Request: Suppose we examine the binder DKIAALKAEIAALKAENAALEAKIAALKG [4H2646-AA] ; what interaction score value has been reported?
Result: 1.28

Request: So what does the record say about interaction score for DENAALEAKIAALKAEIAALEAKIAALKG [4H1350-AA] ?
Result: 0.186

Request: # query: interaction score of entry DKIAALKAENAALKAEIAALEAKIAALKG [4H2758-AA]
Result: 0.499

Request: Recorded interaction score of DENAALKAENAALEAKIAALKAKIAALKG [4H1710-AA] , please.
Result: -0.882

This collection of values is drawn from paper PMC10397247.
